subjectOfTest: T1, Recombinant Human DLL4 (human, UniProt Q9NR61 27-524)
T1 construct: Bought recombinant human DLL4 (R&D Systems Cat#1506-D4/CF); also called delta-like protein 4; Delta-like 4
assayProtocol: ELISA, DLL4 coated on the plate, Fab at 100 nM, signal minus blank
Outcome label depends on ELISA Signal-blank (100 nM Fab) relative to 0.3: at/above gives True, below gives False.

binder	qualitativeLabel
Fab VH5-51_IGHD5-18*01>3_IGHJ4*01 G100K/G104T G24T/S28R/G35V (H:KT TRV) & V3-4_IGLJ1*01 V91I (Fab, V domains shown, Fab; expressed from plasmid A (CH1, His6 and Flag tags) and plasmid E (lambda CL)) VH: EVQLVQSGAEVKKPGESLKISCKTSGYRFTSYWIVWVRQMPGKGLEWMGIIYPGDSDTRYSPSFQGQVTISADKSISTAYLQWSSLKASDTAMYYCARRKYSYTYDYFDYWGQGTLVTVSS VL: QTVVTQEPSFSVSPGGTVTLTCGLSSGSVSTSYYPSWYQQTPGQAPRTLIYSTNTRSSGVPDRFSGSILGNKAALTITGAQADDESDYYCILYMGSGISYVFGTGTKVTVL	True
Fab VH5-51_IGHD5-18*01>3_IGHJ4*01 G100K/G104T G24T/S28R/G35V (H:KT TRV) & V3-4_IGLJ1*01 V91W (Fab, V domains shown, Fab; expressed from plasmid A (CH1, His6 and Flag tags) and plasmid E (lambda CL)) VH: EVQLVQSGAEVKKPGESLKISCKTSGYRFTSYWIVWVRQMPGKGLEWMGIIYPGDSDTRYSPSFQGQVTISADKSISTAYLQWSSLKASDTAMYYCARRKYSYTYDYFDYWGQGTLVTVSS VL: QTVVTQEPSFSVSPGGTVTLTCGLSSGSVSTSYYPSWYQQTPGQAPRTLIYSTNTRSSGVPDRFSGSILGNKAALTITGAQADDESDYYCWLYMGSGISYVFGTGTKVTVL	False

Enquiry: Given the entry Fab VH5-51_IGHD5-18*01>3_IGHJ4*01 G100K/G104T G24T/S28R/G35V (H:KT TRV) & V3-4_IGLJ1*01 S57A (Fab, V domains shown, Fab; expressed from plasmid A (CH1, His6 and Flag tags) and plasmid E (lambda CL)) VH: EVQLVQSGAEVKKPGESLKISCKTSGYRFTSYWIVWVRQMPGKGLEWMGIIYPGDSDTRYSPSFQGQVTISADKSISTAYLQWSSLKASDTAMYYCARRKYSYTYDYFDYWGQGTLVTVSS VL: QTVVTQEPSFSVSPGGTVTLTCGLSSGSVSTSYYPSWYQQTPGQAPRTLIYSTNTRASGVPDRFSGSILGNKAALTITGAQADDESDYYCVLYMGSGISYVFGTGTKVTVL , answer whether its ELISA Signal-blank (100 nM Fab) meets or surpasses 0.3.
Return: True

Enquiry: // inclusive: ELISA Signal-blank (100 nM Fab) at least 0.3? input: Fab VH5-51_IGHD5-18*01>3_IGHJ4*01 G100K/G104T G24T/S28R/G35V (H:KT TRV) & V3-4_IGLJ1*01 (Fab, V domains shown, Fab with the parent (unmutated) light chain; expressed from plasmid A (CH1, His6 and Flag tags) and plasmid E (lambda CL); also called H:KT TRV & L:wt) VH: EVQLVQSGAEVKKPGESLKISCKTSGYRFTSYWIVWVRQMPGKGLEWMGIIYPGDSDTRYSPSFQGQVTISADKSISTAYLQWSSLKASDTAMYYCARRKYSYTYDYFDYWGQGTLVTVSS VL: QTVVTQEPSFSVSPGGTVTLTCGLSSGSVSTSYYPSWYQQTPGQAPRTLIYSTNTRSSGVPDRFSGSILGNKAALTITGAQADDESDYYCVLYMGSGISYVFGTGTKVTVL
Return: True

Enquiry: Please tell me: is the binder Fab VH5-51_IGHD5-18*01>3_IGHJ4*01 G100K/G104T G24T/S28R/G35V (H:KT TRV) & V3-4_IGLJ1*01 M94V (Fab, V domains shown, Fab; expressed from plasmid A (CH1, His6 and Flag tags) and plasmid E (lambda CL)) VH: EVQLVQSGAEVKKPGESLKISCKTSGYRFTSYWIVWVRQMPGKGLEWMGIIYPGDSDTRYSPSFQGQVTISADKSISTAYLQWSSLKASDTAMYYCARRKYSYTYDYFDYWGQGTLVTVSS VL: QTVVTQEPSFSVSPGGTVTLTCGLSSGSVSTSYYPSWYQQTPGQAPRTLIYSTNTRSSGVPDRFSGSILGNKAALTITGAQADDESDYYCVLYVGSGISYVFGTGTKVTVL at or over 0.3 in terms of ELISA Signal-blank (100 nM Fab)?
Return: True
